The measured values listed here are drawn from ChEMBL document CHEMBL5584237.

- experiment.description: Cytotoxicity against human WI-38 cells assessed as reduction in cell growth measured after 48 hrs by MTT assay
- Assay type: toxicity, cell-based
recorded.endpoint: IC50 at 48 h (µM)
One number for each entry, in µM.

chem.smiles: CCN1CCN(c2ccc(NC(=O)Nc3ccc(-c4cc(C(=O)NC)c5ncccc5n4)cc3)cc2C(F)(F)F)CC1
unit.tag: µM
recorded.number: 16.7

Dear colleague, could you send me IC50 at 48 h for each of the items below? Thanks.
1. CC(C)NC(=O)c1cc(-c2ccc(NC(=O)Nc3ccc(N4CCN(C)CC4)c(C(F)(F)F)c3)cc2)nc2cccnc12
2. C=CC(=O)N1CCN(c2ccc(NC(=O)Nc3ccc(-c4cc(C(=O)NC(C)C)c5ncccc5n4)cc3)cc2C(F)(F)F)CC1
3. CCN1CCN(c2ccc(NC(=O)Nc3ccc(-c4cc(C(=O)NC(C)C)c5ncccc5n4)cc3)cc2C(F)(F)F)CC1
4. CC(C)NC(=O)c1cc(-c2ccc(NC(=O)Nc3ccc(N4CCNCC4)c(C(F)(F)F)c3)cc2)nc2cccnc12

1. 18.3
2. 15.8
3. 16.2
4. 18.6

====

- experiment.description: Selectivity index, ratio of IC50 for human WI-38 cells to IC50 for human MCF7 cells
- Assay type: toxicity
- experimental.parameters: WI-38 cells and MCF7 cells, read-out: Ratio IC50
recorded.endpoint: selectivity ratio

Reported selectivity ratio of "CCN1CCN(c2ccc(NC(=O)Nc3ccc(-c4cc(C(=O)NC(C)C)c5ncccc5n4)cc3)cc2C(F)(F)F)CC1" : 10.1

====

- experiment.description: Selectivity index, ratio of IC50 for human WI-38 cells to IC50 for human NCI-H460 cells
- Assay type: toxicity
- experimental.parameters: WI-38 cells and NCI-H460 cells, read-out: Ratio IC50
recorded.endpoint: selectivity ratio
Answers are plain numbers.

Briefly, selectivity ratio measured for "CCN1CCN(c2ccc(NC(=O)Nc3ccc(-c4cc(C(=O)NC(C)C)c5ncccc5n4)cc3)cc2C(F)(F)F)CC1" : 6.4

====

- tgt: Macrophage colony-stimulating factor 1 receptor (Homo sapiens, UniProt P07333)
- Sequence (P07333 whole entry, the tested form may be a part): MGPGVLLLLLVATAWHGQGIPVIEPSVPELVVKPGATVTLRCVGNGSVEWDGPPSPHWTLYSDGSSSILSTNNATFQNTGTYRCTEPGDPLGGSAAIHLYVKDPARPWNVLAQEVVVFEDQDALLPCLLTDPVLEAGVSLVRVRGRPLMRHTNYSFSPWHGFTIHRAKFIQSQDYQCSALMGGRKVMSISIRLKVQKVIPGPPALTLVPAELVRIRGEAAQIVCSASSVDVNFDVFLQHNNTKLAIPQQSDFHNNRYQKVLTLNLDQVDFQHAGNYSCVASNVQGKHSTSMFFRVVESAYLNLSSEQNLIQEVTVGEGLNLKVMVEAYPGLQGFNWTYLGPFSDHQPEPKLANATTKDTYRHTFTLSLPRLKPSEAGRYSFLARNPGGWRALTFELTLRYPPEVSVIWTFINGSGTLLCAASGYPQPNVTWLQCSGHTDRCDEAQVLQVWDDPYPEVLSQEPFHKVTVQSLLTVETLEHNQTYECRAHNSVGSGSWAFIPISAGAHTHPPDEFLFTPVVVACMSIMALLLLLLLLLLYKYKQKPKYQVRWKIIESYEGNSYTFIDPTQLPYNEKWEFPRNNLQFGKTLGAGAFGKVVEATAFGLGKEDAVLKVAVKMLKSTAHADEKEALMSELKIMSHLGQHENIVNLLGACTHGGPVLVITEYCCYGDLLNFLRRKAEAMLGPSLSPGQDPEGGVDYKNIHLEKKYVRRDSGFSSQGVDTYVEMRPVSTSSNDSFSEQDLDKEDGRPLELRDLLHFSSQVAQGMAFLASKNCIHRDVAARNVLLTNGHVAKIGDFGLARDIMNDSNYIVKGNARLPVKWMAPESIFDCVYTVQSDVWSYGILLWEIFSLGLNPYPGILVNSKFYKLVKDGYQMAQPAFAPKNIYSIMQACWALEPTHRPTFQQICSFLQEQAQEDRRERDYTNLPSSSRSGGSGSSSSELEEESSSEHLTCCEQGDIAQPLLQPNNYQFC
- experiment.description: Inhibition of NanoLuc-fused FMS (unknown origin) transfected in HEK293 cells by NanoBRET assay
- Format: cell-based
recorded.endpoint: IC50 (nM)
Give bare numbers, in nM.

State recorded IC50 for all listed compounds.
1. CNC(=O)c1cc(-c2ccc(NC(=O)Nc3ccc(N4CCN(C)CC4)c(C(F)(F)F)c3)cc2)nc2cccnc12
2. CCN1CCN(c2ccc(NC(=O)Nc3ccc(-c4cc(C(=O)NC)c5ncccc5n4)cc3)cc2C(F)(F)F)CC1

1. 563
2. 1350

====

- experiment.description: Cytotoxicity against human HS27 cells assessed as reduction in cell growth measured after 48 hrs by MTT assay
- Type: toxicity, cell-based
Provide the recorded IC50 at 48 h for the entries that follow.

chem.smiles: CCN1CCN(c2ccc(NC(=O)Nc3ccc(-c4cc(C(=O)NC(C)C)c5ncccc5n4)cc3)cc2C(F)(F)F)CC1
recorded.endpoint: IC50 at 48 h
result: 8.4 µM
//
chem.smiles: C=CC(=O)N1CCN(c2ccc(NC(=O)Nc3ccc(-c4cc(C(=O)NC(C)C)c5ncccc5n4)cc3)cc2C(F)(F)F)CC1
recorded.endpoint: IC50 at 48 h
result: 8.1 µM
//
chem.smiles: CC(C)NC(=O)c1cc(-c2ccc(NC(=O)Nc3ccc(N4CCNCC4)c(C(F)(F)F)c3)cc2)nc2cccnc12
recorded.endpoint: IC50 at 48 h
result: 9.1 µM
//
chem.smiles: CC(C)NC(=O)c1cc(-c2ccc(NC(=O)Nc3ccc(N4CCN(C)CC4)c(C(F)(F)F)c3)cc2)nc2cccnc12
recorded.endpoint: IC50 at 48 h
result: 8 µM
//
chem.smiles: CNC(=O)c1cc(-c2ccc(NC(=O)Nc3ccc(N4CCOCC4)c(C(F)(F)F)c3)cc2)nc2cccnc12
recorded.endpoint: IC50 at 48 h
result: 11.6 µM
//
chem.smiles: CCN1CCN(c2ccc(NC(=O)Nc3ccc(-c4cc(C(=O)NC)c5ncccc5n4)cc3)cc2C(F)(F)F)CC1
recorded.endpoint: IC50 at 48 h
result: 8.8 µM

As a next step, examine the molecule that follows.
What the record says about "CNC(=O)c1cc(Oc2ccc(NC(=O)Nc3ccc(Cl)c(C(F)(F)F)c3)cc2)ccn1" : IC50 at 48 h is 8.3 µM
